Where these numbers come from: the supplement of paper PMC10307832

relative viability values for the compounds below.
- System: NCI-H1648
- experiment summary: relative viability (nuclei count vs DMSO), 5 days (fraction); higher = more cells survive
- assay conditions: first compound 0.01 µM
measured attribute: relative viability

compound | measured attribute | val
CCN(CC)CCCCNc1ncc2cc(-c3cc(OC)cc(OC)c3)c(NC(=O)NC(C)(C)C)nc2n1 + NC(=O)Nc1cc(-c2cccc(F)c2)sc1C(=O)N[C@H]1CCCNC1 [AZD7762] (partner 0.2 µM) | relative viability | 0.69
CCN(CC)CCCCNc1ncc2cc(-c3cc(OC)cc(OC)c3)c(NC(=O)NC(C)(C)C)nc2n1 + CC(=O)Nc1cccc(-n2c(=O)n(C3CC3)c(=O)c3c(Nc4ccc(I)cc4F)n(C)c(=O)c(C)c32)c1 [Trametinib] (partner 0.02 µM) | relative viability | 0.368
CCN(CC)CCCCNc1ncc2cc(-c3cc(OC)cc(OC)c3)c(NC(=O)NC(C)(C)C)nc2n1 + Nc1nc2[nH]cc(CCc3ccc(C(=O)N[C@@H](CCC(=O)O)C(=O)O)cc3)c2c(=O)[nH]1 [Pemetrexed] (partner 0.2 µM) | relative viability | 0.7
CCN(CC)CCCCNc1ncc2cc(-c3cc(OC)cc(OC)c3)c(NC(=O)NC(C)(C)C)nc2n1 + Cc1cc(Nc2cc(N3CCN(C)CC3)nc(Sc3ccc(NC(=O)C4CC4)cc3)n2)n[nH]1 [Tozasertib] (partner 0.1 µM) | relative viability | 0.657
CCN(CC)CCCCNc1ncc2cc(-c3cc(OC)cc(OC)c3)c(NC(=O)NC(C)(C)C)nc2n1 + CC(=O)c1c(C)c2cnc(Nc3ccc(N4CCNCC4)cn3)nc2n(C2CCCC2)c1=O [Palbociclib] (partner 0.5 µM) | relative viability | 0.288

* * *

- Test system: NCI-H2126
- experiment summary: relative viability (nuclei count vs DMSO), 5 days (fraction); higher = more cells survive
- assay conditions: first compound 2 µM
Quick list: relative viability per entry.

compound | relative viability
COCC1(CO)C(=O)C2CCN1CC2 (centres undefined) [PRIMA-1MET] + O=C(c1cc(Cc2n[nH]c(=O)c3ccccc23)ccc1F)N1CCN(C(=O)C2CC2)CC1 [Olaparib] (partner 8 µM) | 0.854
COCC1(CO)C(=O)C2CCN1CC2 (centres undefined) [PRIMA-1MET] + C[C@@H](Oc1cc(-c2cnn(C3CCNCC3)c2)cnc1N)c1c(Cl)ccc(F)c1Cl [Crizotinib] (partner 1 µM) | 0.957
COCC1(CO)C(=O)C2CCN1CC2 (centres undefined) [PRIMA-1MET] + COc1cc2c(Oc3ccc(NC(=O)C4(C(=O)Nc5ccc(F)cc5)CC4)cc3F)ccnc2cc1OCCCN1CCOCC1 [Foretinib] (partner 0.25 µM) | 1.22
COCC1(CO)C(=O)C2CCN1CC2 (centres undefined) [PRIMA-1MET] + CC(=O)Nc1cccc(-n2c(=O)n(C3CC3)c(=O)c3c(Nc4ccc(I)cc4F)n(C)c(=O)c(C)c32)c1 [Trametinib] (partner 0.02 µM) | 0.597

* * *

- Test system: A-427
- experiment summary: relative viability (nuclei count vs DMSO), 5 days (fraction); higher = more cells survive
- assay conditions: first compound 0.3162 µM
measured attribute: relative viability

compound | system name | val
O=c1cc(N2CCOCC2)oc2c(-c3cccc4c3sc3ccccc34)cccc12 + Nc1ncn([C@H]2C[C@H](O)[C@@H](CO)O2)c(=O)n1 [Decitabine] (partner 2 µM) | A-427 | 0.591
O=c1cc(N2CCOCC2)oc2c(-c3cccc4c3sc3ccccc34)cccc12 + O=C(CCCCCCC(=O)Nc1ccccc1)NO [Vorinostat] (partner 1 µM) | A-427 | 0.82
CCN(CC)CCCCNc1ncc2cc(-c3cc(OC)cc(OC)c3)c(NC(=O)NC(C)(C)C)nc2n1 + C[C@@H](Oc1cc(-c2cnn(C3CCNCC3)c2)cnc1N)c1c(Cl)ccc(F)c1Cl [Crizotinib] (partner 1 µM) | A-427 | 0.909

* * *

- Test system: EPLC-272H
- experiment summary: relative viability (nuclei count vs DMSO), 5 days (fraction); higher = more cells survive
- assay conditions: first compound 6.325 µM
Threshold-based label: relative viability under 0.3 gives Fulfilled, relative viability not under 0.3 gives Not fulfilled.

compound | qualitative label
COCC1(CO)C(=O)C2CCN1CC2 (stereo not given) [PRIMA-1MET] + Nc1nc2[nH]cc(CCc3ccc(C(=O)N[C@@H](CCC(=O)O)C(=O)O)cc3)c2c(=O)[nH]1 [Pemetrexed] (partner 0.2 µM) | Not fulfilled
COCC1(CO)C(=O)C2CCN1CC2 (stereo not given) [PRIMA-1MET] + CCNC(=O)c1noc(-c2cc(C(C)C)c(O)cc2O)c1-c1ccc(CN2CCOCC2)cc1 [Luminespib] (partner 0.01 µM) | Fulfilled
COCC1(CO)C(=O)C2CCN1CC2 (stereo not given) [PRIMA-1MET] + CC(=O)c1c(C)c2cnc(Nc3ccc(N4CCNCC4)cn3)nc2n(C2CCCC2)c1=O [Palbociclib] (partner 0.5 µM) | Not fulfilled
COCC1(CO)C(=O)C2CCN1CC2 (stereo not given) [PRIMA-1MET] + COc1cccc2cc(-c3nc([C@H]4CC[C@H](C(=O)O)CC4)n4ncnc(N)c34)[nH]c12 [OSI-027] (partner 0.5 µM) | Fulfilled

* * *

Listed below: relative viability values for each entry.
- Tested on: LK-2
- experiment summary: relative viability (nuclei count vs DMSO), 5 days (fraction); higher = more cells survive
- assay conditions: first compound 20 µM
measured attribute: relative viability

compound | measured attribute | val
COCC1(CO)C(=O)C2CCN1CC2 (stereo not drawn) [PRIMA-1MET] + NC(=O)Nc1cc(-c2cccc(F)c2)sc1C(=O)N[C@H]1CCCNC1 [AZD7762] (partner 0.2 µM) | relative viability | 0.0604
COCC1(CO)C(=O)C2CCN1CC2 (stereo not drawn) [PRIMA-1MET] + CC(=O)c1c(C)c2cnc(Nc3ccc(N4CCNCC4)cn3)nc2n(C2CCCC2)c1=O [Palbociclib] (partner 0.5 µM) | relative viability | 0.0375
COCC1(CO)C(=O)C2CCN1CC2 (stereo not drawn) [PRIMA-1MET] + O=C(CCCCCCC(=O)Nc1ccccc1)NO [Vorinostat] (partner 1 µM) | relative viability | 0.0975

* * *

- Test system: ChaGo-K-1
- experiment summary: relative viability (nuclei count vs DMSO), 5 days (fraction); higher = more cells survive
- assay conditions: first compound 0.01 µM
Below is a list of entries, each paired with its recorded relative viability value.
measured attribute: relative viability

compound | system name | val
O=c1cc(N2CCOCC2)oc2c(-c3cccc4c3sc3ccccc34)cccc12 + C[C@@H](Oc1cc(-c2cnn(C3CCNCC3)c2)cnc1N)c1c(Cl)ccc(F)c1Cl [Crizotinib] (partner 1 µM) | ChaGo-K-1 | 1.17
O=c1cc(N2CCOCC2)oc2c(-c3cccc4c3sc3ccccc34)cccc12 + CC(=O)Nc1cccc(-n2c(=O)n(C3CC3)c(=O)c3c(Nc4ccc(I)cc4F)n(C)c(=O)c(C)c32)c1 [Trametinib] (partner 0.02 µM) | ChaGo-K-1 | 0.845
O=c1cc(N2CCOCC2)oc2c(-c3cccc4c3sc3ccccc34)cccc12 + O=C(CCCCCCC(=O)Nc1ccccc1)NO [Vorinostat] (partner 1 µM) | ChaGo-K-1 | 0.69
O=c1cc(N2CCOCC2)oc2c(-c3cccc4c3sc3ccccc34)cccc12 + N=C(N)NC(=N)NCCc1ccccc1 [Phenformin] (partner 250 µM) | ChaGo-K-1 | 0.401

* * *

Listed below: relative viability values for each entry.
- Tested on: NCI-H1993
- experiment summary: relative viability (nuclei count vs DMSO), 5 days (fraction); higher = more cells survive
- assay conditions: first compound 0.3162 µM
measured attribute: relative viability

compound | measured attribute | val
O=c1cc(N2CCOCC2)oc2c(-c3cccc4c3sc3ccccc34)cccc12 + Nc1nc2[nH]cc(CCc3ccc(C(=O)N[C@@H](CCC(=O)O)C(=O)O)cc3)c2c(=O)[nH]1 [Pemetrexed] (partner 0.2 µM) | relative viability | 0.54
O=c1cc(N2CCOCC2)oc2c(-c3cccc4c3sc3ccccc34)cccc12 + CC(=O)Nc1cccc(-n2c(=O)n(C3CC3)c(=O)c3c(Nc4ccc(I)cc4F)n(C)c(=O)c(C)c32)c1 [Trametinib] (partner 0.02 µM) | relative viability | 0.407
CCN(CC)CCCCNc1ncc2cc(-c3cc(OC)cc(OC)c3)c(NC(=O)NC(C)(C)C)nc2n1 + N=C(N)NC(=N)NCCc1ccccc1 [Phenformin] (partner 250 µM) | relative viability | 0.492
O=c1cc(N2CCOCC2)oc2c(-c3cccc4c3sc3ccccc34)cccc12 + Cc1cc(Nc2cc(N3CCN(C)CC3)nc(Sc3ccc(NC(=O)C4CC4)cc3)n2)n[nH]1 [Tozasertib] (partner 0.1 µM) | relative viability | 0.566

* * *

- Tested on: NCI-H1563
- experiment summary: relative viability (nuclei count vs DMSO), 5 days (fraction); higher = more cells survive
- assay conditions: first compound 1 µM
Consider the cut-off 0.6. If the recorded relative viability is strictly smaller, the label is t; if not, the label is f.

compound | qualitative label
CCN(CC)CCCCNc1ncc2cc(-c3cc(OC)cc(OC)c3)c(NC(=O)NC(C)(C)C)nc2n1 + C[C@@H](Oc1cc(-c2cnn(C3CCNCC3)c2)cnc1N)c1c(Cl)ccc(F)c1Cl [Crizotinib] (partner 1 µM) | f
CCN(CC)CCCCNc1ncc2cc(-c3cc(OC)cc(OC)c3)c(NC(=O)NC(C)(C)C)nc2n1 + CCNC(=O)c1noc(-c2cc(C(C)C)c(O)cc2O)c1-c1ccc(CN2CCOCC2)cc1 [Luminespib] (partner 0.01 µM) | t
O=c1cc(N2CCOCC2)oc2c(-c3cccc4c3sc3ccccc34)cccc12 + Cc1nc(NC(=O)N2CCC[C@H]2C(N)=O)sc1-c1ccnc(C(C)(C)C(F)(F)F)c1 [Alpelisib] (partner 2 µM) | f
CCN(CC)CCCCNc1ncc2cc(-c3cc(OC)cc(OC)c3)c(NC(=O)NC(C)(C)C)nc2n1 + COc1cc2c(Oc3ccc(NC(=O)C4(C(=O)Nc5ccc(F)cc5)CC4)cc3F)ccnc2cc1OCCCN1CCOCC1 [Foretinib] (partner 0.25 µM) | f
CCN(CC)CCCCNc1ncc2cc(-c3cc(OC)cc(OC)c3)c(NC(=O)NC(C)(C)C)nc2n1 + CS(=O)(=O)N1CCN(Cc2cc3nc(-c4cccc5[nH]ncc45)nc(N4CCOCC4)c3s2)CC1 [Pictilisib] (partner 1 µM) | t
